Cited source: ChEMBL document CHEMBL4689842

Tested on: Fibroblast
experimentNotes: Multiplex assay against human fibroblast
Type: toxicity, cell-based
conditionContext: 12 h, 1 µM, compound concentration 1 uM, replicate 1
Binary call on Population Membrane Permeable-Phenotype (%): T from 30% upward, F beneath that.

Does the reported Population Membrane Permeable-Phenotype (%) for O=C(c1cc2c(cc1F)OC(c1ccc(F)cc1)(c1ccc(Cl)cc1Cl)O2)N1CCOCC1 (centres undefined) fall at or above the 30% mark?
F

# repeat for Cc1ccc2c(c1)c1c(n2CCc2ccc(C)nc2)CCN(C)C1 [LATREPIRDINE]
F

# repeat for O=c1cc(N2CCOCC2)oc2c(-c3cccc4c3sc3ccccc34)cccc12
T

# repeat for CN1CCN(Cc2ccc(Nc3ncc(Cl)c(Nc4ccccc4S(=O)(=O)N(C)C)n3)cc2)CC1
T

# repeat for Cc1c[nH]c2nccc(Oc3c(F)cc(Nc4cc(Cl)nc(N)n4)cc3F)c12
T

# repeat for CC1=C(C(=O)Nc2cc3cn[nH]c3cc2F)C(c2ccc(C(F)(F)F)cc2)CC(=O)N1 (centres undefined)
F

# repeat for COc1cc2ncn(-c3cc(OCc4ccccc4C(F)(F)F)c(C(N)=O)s3)c2cc1OC [GW843682X]
F

# repeat for C=CC(=O)Nc1cccc(Sc2nc(Nc3ccc(N4CCN(C)CC4)cc3)ncc2Cl)c1
F

# repeat for CCc1ccc(OCc2ccccc2C(=O)Nc2ccc3nc(C)cc(N)c3c2)cc1.Cl
F

* * *

System: HEK-293T
experimentNotes: Multiplex assay against HEK293T
Assay type: toxicity, cell-based
conditionContext: human, 24 h, 1 µM, compound concentration 1 uM, replicate 1
Binary call on Population Normal (%): TRUE from 90% upward, FALSE beneath that.

Does the reported Population Normal (%) for Cc1ccc2c(c1)c1c(n2CCc2ccc(C)nc2)CCN(C)C1 [LATREPIRDINE] fall at or above the 90% mark?
FALSE

# repeat for CCCSc1nc(N[C@@H]2C[C@H]2c2ccc(F)c(F)c2)c2nnn([C@@H]3C[C@H](OCCO)[C@@H](O)[C@H]3O)c2n1
FALSE

# repeat for CNC(=O)Nc1ccc(-c2nc(N3CC4CCC(C3)O4)c3cnn(C4CCC5(CC4)OCCO5)c3n2)cc1
FALSE

# repeat for O=C(c1cc2c(cc1F)OC(c1ccc(F)cc1)(c1ccc(Cl)cc1Cl)O2)N1CCOCC1 (configuration not stated)
FALSE

# repeat for C=CC(=O)Nc1cccc(Oc2nc(Nc3ccc(N4CCN(C)CC4)cc3OC)ncc2Cl)c1
FALSE

# repeat for COc1ccccc1CN[C@H]1C2CCN(CC2)[C@H]1C(c1ccccc1)c1ccccc1
FALSE

# repeat for CC(C)CC(=O)Nc1[nH]nc2c1CN(C(=O)C1CCN(C)CC1)C2(C)C
TRUE

# repeat for Cl.O=C(O)c1cc(-c2ccc(C3CCNCC3)cc2)c2ccc(-c3ccc(C(F)(F)F)cc3)cc2c1
FALSE

# repeat for C[C@]12CC[C@@H]3c4ccc(O)cc4CC[C@H]3[C@@H]1CC[C@@H]2O
FALSE

# repeat for CCc1nn(CCCN2CCN(c3cccc(Cl)c3)CC2)c(=O)n1CCOc1ccccc1.Cl [NEFAZODONE HYDROCHLORIDE]
TRUE

# repeat for Cc1ccccc1C(c1ccccc1C)N1C2CCC1CC(O)(c1ccccc1)C2 (configuration not stated)
FALSE

# repeat for CC(C)(C)NC[C@H](O)COc1nsnc1N1CCOCC1
FALSE

# repeat for O=c1[nH]c2ccccc2n1C1CCN(Cc2ccc(-c3[nH]c4cc5ncnc5cc4nc3-c3ccccc3)cc2)CC1
TRUE
